# Procedure summary: Toxicokinetics in miniature swine
# Type: in vivo, Hanford miniature swine
# Details: both sexes, Hanford, pig, blood, topical or ocular, 400 mg, Week 12, Group 2 swine, topical 400 mg Galnobax Gel BID, mean; read-out: Cmax
Where a name gives a salt, the structure may show the parent alone.
Attribute measured: Cmax (ng/mL)
Please state the figure in ng/mL; there is no need to write the unit.

Give the reported Cmax for this compound. COC(=O)CCc1ccc(OCC(O)CNC(C)C)cc1 (stereo not shown) [Esmolol hydrochloride] 140

###

# Procedure summary: MTT cytotoxicity in HFF-1
# Format: cell-based, human
# Details: human, HFF-1 cells; HFF-1, 48 h, 1 μM; read-out: % Cytotoxicity w.r.t. untreated cells
# Experimental: 1. HaCaT, HFF-1 and Ea.hy926 cells were counted and plated in 96 well plates at the density corresponding to 5 X 10^3 cells/well/180 μl of cell growth medium. 2. […] 6. […] The absorbance of each well was then read at 540 nm using Synergy HT micro plate reader. 7. The percentage cytotoxicity at each tested concentration was calculated using the following formula: […]
Structures can show the parent of a compound that is named as a salt.
Attribute measured: cytotoxicity at 48 h, 1 µM (%)
Please state the figure in %; there is no need to write the unit.

Give the reported cytotoxicity at 48 h, 1 µM for this molecule. COC(=O)CCc1ccc(OCC(O)CNC(C)C)cc1 (stereo not shown) [Esmolol hydrochloride] -8.29
